- Test Target: orexin-1 (Homo sapiens (Human))
- Sequence (O43613 whole entry): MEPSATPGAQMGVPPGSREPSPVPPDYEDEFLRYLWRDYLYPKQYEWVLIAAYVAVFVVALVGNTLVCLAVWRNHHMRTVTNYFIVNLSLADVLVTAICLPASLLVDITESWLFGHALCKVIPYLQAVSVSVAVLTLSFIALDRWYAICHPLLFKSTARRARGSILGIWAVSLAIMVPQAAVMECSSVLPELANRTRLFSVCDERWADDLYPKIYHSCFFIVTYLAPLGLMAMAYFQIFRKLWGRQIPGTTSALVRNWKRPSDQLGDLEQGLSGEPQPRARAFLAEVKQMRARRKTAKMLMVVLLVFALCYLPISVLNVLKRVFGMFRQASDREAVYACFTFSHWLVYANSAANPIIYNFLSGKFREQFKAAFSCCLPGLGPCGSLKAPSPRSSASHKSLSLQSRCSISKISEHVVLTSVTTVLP
- Experiment Notes: Intracellular calcium measurement (FLIPR), CHO cells expressing human orexin-1 receptor, 3 nM orexin-A
- Format: cell-based
- Condition Notes: CHO cells expressing human orexin-1 receptor, FLIPR, 3 nM orexin-A; geometric mean if determined several times; read-out: IC50 OX1
Parameter Measured: pIC50
Numbers only, as −log10 of the molar value.

Below are worked cases with known answers.
[
  {
    "Compound": "Cc1ccc(-c2noc([C@@H]3CCCN3C(=O)c3cc(C)ccc3-n3nccn3)n2)c(C)c1 [compound 81]",
    "Parameter Measured": "pIC50",
    "Recorded Number": 6.51
  },
  {
    "Compound": "O=C(c1ccc(F)cc1-n1nccn1)N1CCC[C@H]1c1nc(-c2ccccc2OC(F)(F)F)no1 [compound 163]",
    "Parameter Measured": "pIC50",
    "Recorded Number": 6.31
  },
  {
    "Compound": "CCOc1ccccc1-c1noc([C@@H]2CCCN2C(=O)c2cc(F)ccc2-n2nccn2)n1 [compound 263]",
    "Parameter Measured": "pIC50",
    "Recorded Number": 6.30
  }
]

Input: Entry Cc1c(Cl)cccc1-c1noc([C@@H]2CCCN2C(=O)c2cc(F)c(F)cc2-n2nccn2)n1 [compound 110] has what pIC50?
Output: 5.77

Origin of the recorded values: patent US9493446B2
